Test system: Caco-2 cell line
Test: Cytotoxicity MTS assay, Caco-2 cell line
Assay type: cell-based
Conditions: 10μM; third assay; Caco-2 cell line
# OD490 Well 2 annotations
measured.quantity: OD490 Well 2

1) CCOC(=O)c1c(C2NC(=O)NC(C)=C2C(=O)Nc2ccccc2C)[nH]c(C(=O)OC)c1C (stereo not shown) [D2] :: 0.5621
2) CCOC(=O)c1c(C2NC(=O)NC(C)=C2C(=O)Nc2ccccc2OC)[nH]c(C(=O)OC)c1C (stereo not shown) [D1] :: 0.5578
3) CCOC(=O)c1[nH]c(C2NC(=S)NC(C)=C2C(=O)OC)c(C(=O)OCC)c1C (stereo not shown) :: 0.6244
4) COC(=O)c1[nH]c(C2NC(=S)NC(C)=C2C(=O)c2ccccc2)c(C(=O)OC)c1C (stereo not shown) :: 0.6312
5) CCOC(=O)c1[nH]c(C2NC(=O)NC(C)=C2C(=O)Nc2ccc(Cl)cc2)c(C(=O)OCC)c1C (stereo not shown) :: 0.5101
6) CCOC(=O)C1=C(C)NC(=S)NC1c1cccc(O)c1 (stereo not shown) [Monastrol, monastrol, reference compound] :: 0.6583
7) CCOc1ccccc1C1NC(=S)NC(C)=C1C(=O)Nc1ccc(Cl)cc1 (stereo not shown) :: 0.6214
8) CCOC(=O)c1c(C2NC(=O)NC(C)=C2C(=O)Nc2ccccc2)[nH]c(C(=O)OC)c1C (stereo not shown) :: 0.6321
9) CCOC(=O)c1[nH]c(C2NC(=O)NC(C)=C2C(=O)Nc2ccccc2C)c(C(=O)OC)c1C (stereo not shown) :: 0.5614
10) CCOC(=O)c1[nH]c(C2NC(=O)NC(C)=C2C(=O)Nc2ccccc2OC)c(C(=O)OC)c1C (stereo not shown) :: 0.7365

* * *

Tested on: L929 cell line
Assay: Cytotoxicity MTS assay, L929 cell line
Format: cell-based
Settings: L929 cell line, 10μM, third assay
# OD490 values, Well 3 annotations
measured.quantity: OD490 values, Well 3

1. CCOc1ccccc1C1NC(=S)NC(C)=C1C(=O)Nc1ccc(Cl)cc1 (stereo not drawn) :: 1.5847
2. CCOC(=O)c1c(C2NC(=O)NC(C)=C2C(=O)Nc2ccccc2OC)[nH]c(C(=O)OC)c1C (stereo not drawn) [D1] :: 1.6985
3. CCOC(=O)c1[nH]c(C2NC(=S)NC(C)=C2C(=O)OC)c(C(=O)OCC)c1C (stereo not drawn) :: 1.5922
4. COC(=O)c1[nH]c(C2NC(=S)NC(C)=C2C(=O)c2ccccc2)c(C(=O)OC)c1C (stereo not drawn) :: 1.5525
5. CCOC(=O)c1[nH]c(C2NC(=O)NC(C)=C2C(=O)Nc2ccc(Cl)cc2)c(C(=O)OCC)c1C (stereo not drawn) :: 1.6320
6. CCOC(=O)c1[nH]c(C2NC(=O)NC(C)=C2C(=O)Nc2ccccc2C)c(C(=O)OC)c1C (stereo not drawn) :: 1.4630

* * *

System: Caco-2 cell line
Assay: Cytotoxicity MTS assay, Caco-2 cell line
Assay type: cell-based
Details: 1μM; first assay; Caco-2 cell line
OD490 Mean vs 0.6: at or above is satisfied, below is not satisfied.

1. CCOc1ccccc1C1NC(=S)NC(C)=C1C(=O)Nc1ccc(Cl)cc1 (centres unmarked) :: satisfied
2. CCOC(=O)c1c(C2NC(=O)NC(C)=C2C(=O)Nc2ccccc2)[nH]c(C(=O)OC)c1C (centres unmarked) :: not satisfied
3. CCOC(=O)c1[nH]c(C2NC(=O)NC(C)=C2C(=O)Nc2ccccc2OC)c(C(=O)OC)c1C (centres unmarked) :: satisfied
4. CCOC(=O)c1[nH]c(C2NC(=O)NC(C)=C2C(=O)Nc2ccccc2C)c(C(=O)OC)c1C (centres unmarked) :: not satisfied

* * *

Test system: T24 cell line
Assay: Cytotoxicity MTS assay, T24 cell line;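 note: blank control wells received 0.025% DMSO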
Assay type: cell-based
Conditions: T24 cell line, 100μM, first assay
# OD490 Well 2 annotations
measured.quantity: OD490 Well 2

1. CCOC(=O)c1[nH]c(C2NC(=O)NC(C)=C2C(=O)Nc2ccccc2OC)c(C(=O)OC)c1C (stereo not shown) [D3] :: 1.4568
2. CCOC(=O)C1=C(C)NC(=S)NC1c1cccc(O)c1 (stereo not shown) [Monastrol, monastrol, reference compound] :: 1.4841
3. CCOc1ccccc1C1NC(=S)NC(C)=C1C(=O)Nc1ccc(Cl)cc1 (stereo not shown) [C9] :: 1.0869
4. CCOC(=O)c1c(C2NC(=O)NC(C)=C2C(=O)Nc2ccccc2)[nH]c(C(=O)OC)c1C (stereo not shown) [D10] :: 1.0672
5. CCOC(=O)c1[nH]c(C2NC(=O)NC(C)=C2C(=O)Nc2ccccc2C)c(C(=O)OC)c1C (stereo not shown) [D4] :: 1.4557
6. CCOC(=O)c1[nH]c(C2NC(=O)NC(C)=C2C(=O)Nc2ccc(Cl)cc2)c(C(=O)OCC)c1C (stereo not shown) [D7] :: 1.5023
7. CCOC(=O)c1[nH]c(C2NC(=S)NC(C)=C2C(=O)OC)c(C(=O)OCC)c1C (stereo not shown) [D12] :: 1.1849
8. COC(=O)c1[nH]c(C2NC(=S)NC(C)=C2C(=O)c2ccccc2)c(C(=O)OC)c1C (stereo not shown) [D14] :: 1.4320
9. CCOC(=O)c1c(C2NC(=O)NC(C)=C2C(=O)Nc2ccccc2C)[nH]c(C(=O)OC)c1C (stereo not shown) [D2] :: 1.6062
10. CCOC(=O)c1c(C2NC(=O)NC(C)=C2C(=O)Nc2ccccc2OC)[nH]c(C(=O)OC)c1C (stereo not shown) [D1] :: 1.3331

* * *

Tested on: T24 cell line
Assay: Cytotoxicity MTS assay, T24 cell line;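 note: blank control wells received 0.025% DMSO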
Assay type: cell-based
Conditions: T24 cell line, 10μM, first assay
measured.quantity: OD490 Well 2

1) CCOC(=O)C1=C(C)NC(=S)NC1c1cccc(O)c1 (stereo not shown) [Monastrol, monastrol, reference compound] :: 1.7506
2) COC(=O)c1[nH]c(C2NC(=S)NC(C)=C2C(=O)c2ccccc2)c(C(=O)OC)c1C (stereo not shown) :: 1.2630
3) CCOC(=O)c1c(C2NC(=O)NC(C)=C2C(=O)Nc2ccccc2C)[nH]c(C(=O)OC)c1C (stereo not shown) [D2] :: 1.7096
4) CCOC(=O)c1[nH]c(C2NC(=S)NC(C)=C2C(=O)OC)c(C(=O)OCC)c1C (stereo not shown) :: 1.2196
5) CCOC(=O)c1[nH]c(C2NC(=O)NC(C)=C2C(=O)Nc2ccc(Cl)cc2)c(C(=O)OCC)c1C (stereo not shown) :: 1.6104
6) CCOC(=O)c1[nH]c(C2NC(=O)NC(C)=C2C(=O)Nc2ccccc2C)c(C(=O)OC)c1C (stereo not shown) :: 1.7432
7) CCOC(=O)c1[nH]c(C2NC(=O)NC(C)=C2C(=O)Nc2ccccc2OC)c(C(=O)OC)c1C (stereo not shown) :: 1.6776
8) CCOC(=O)c1c(C2NC(=O)NC(C)=C2C(=O)Nc2ccccc2OC)[nH]c(C(=O)OC)c1C (stereo not shown) [D1] :: 1.7790
9) CCOc1ccccc1C1NC(=S)NC(C)=C1C(=O)Nc1ccc(Cl)cc1 (stereo not shown) :: 1.7204
10) CCOC(=O)c1c(C2NC(=O)NC(C)=C2C(=O)Nc2ccccc2)[nH]c(C(=O)OC)c1C (stereo not shown) :: 1.6117

* * *

# OD490 value, Well 2 annotations
System: Hela cell line
Test: Cytotoxicity MTS assay, Hela cell line;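 note: blank control wells received 0.025% DMSO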
Type: cell-based
Settings: Hela cell line, MTS, 1μM, third assay
measured.quantity: OD490 value, Well 2

1. CCOc1ccccc1C1NC(=S)NC(C)=C1C(=O)Nc1ccc(Cl)cc1 (centres unmarked) :: 2.5532
2. CCOC(=O)c1[nH]c(C2NC(=O)NC(C)=C2C(=O)Nc2ccc(Cl)cc2)c(C(=O)OCC)c1C (centres unmarked) :: 2.5980
3. CCOC(=O)c1[nH]c(C2NC(=O)NC(C)=C2C(=O)Nc2ccccc2OC)c(C(=O)OC)c1C (centres unmarked) :: 2.7412
4. CCOC(=O)c1[nH]c(C2NC(=O)NC(C)=C2C(=O)Nc2ccccc2C)c(C(=O)OC)c1C (centres unmarked) :: 2.5421
5. CCOC(=O)c1c(C2NC(=O)NC(C)=C2C(=O)Nc2ccccc2OC)[nH]c(C(=O)OC)c1C (centres unmarked) [D1] :: 2.7546
6. CCOC(=O)c1c(C2NC(=O)NC(C)=C2C(=O)Nc2ccccc2)[nH]c(C(=O)OC)c1C (centres unmarked) :: 2.5412
7. CCOC(=O)c1[nH]c(C2NC(=S)NC(C)=C2C(=O)OC)c(C(=O)OCC)c1C (centres unmarked) :: 2.6985
8. CCOC(=O)c1c(C2NC(=O)NC(C)=C2C(=O)Nc2ccccc2C)[nH]c(C(=O)OC)c1C (centres unmarked) [D2] :: 2.7848

* * *

System: L929 cell line
Assay: Cytotoxicity MTS assay, L929 cell line
Format: cell-based
Conditions: L929 cell line, 1μM, third assay
# OD490 values, Well 2 annotations
measured.quantity: OD490 values, Well 2

1. CCOC(=O)c1[nH]c(C2NC(=O)NC(C)=C2C(=O)Nc2ccc(Cl)cc2)c(C(=O)OCC)c1C (stereo not drawn) [D7] :: 1.6358
2. CCOC(=O)c1[nH]c(C2NC(=O)NC(C)=C2C(=O)Nc2ccccc2C)c(C(=O)OC)c1C (stereo not drawn) [D4] :: 1.5478
3. CCOc1ccccc1C1NC(=S)NC(C)=C1C(=O)Nc1ccc(Cl)cc1 (stereo not drawn) [C9] :: 1.6354
4. COC(=O)c1[nH]c(C2NC(=S)NC(C)=C2C(=O)c2ccccc2)c(C(=O)OC)c1C (stereo not drawn) [D14] :: 1.6622
5. CCOC(=O)c1c(C2NC(=O)NC(C)=C2C(=O)Nc2ccccc2OC)[nH]c(C(=O)OC)c1C (stereo not drawn) [D1] :: 1.7452
6. CCOC(=O)c1[nH]c(C2NC(=S)NC(C)=C2C(=O)OC)c(C(=O)OCC)c1C (stereo not drawn) [D12] :: 1.5836
